Tested on: Wnt5a (protein binding on small-molecule microarray)
Assay: Wnt5a binders on small-molecule microarray, primary screen, biophysical, 635/667 nm fluorescence (AID 1142);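 note: fluorescence read at 667 nm with signal to noise per printed feature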
Settings: 635 nm fluorescence, higher = more signal
Is composite z-score at least 0.09? Then 1 (yes). If not, 0 (no).

# compound, class_assignment
rows = [
    ("CCN(CC)c1ccc(N2CC=CC34O[C@@H]5C=CCOC(=O)[C@@H]5[C@H]3C(=O)N(C(C)CO)[C@@H]4C2=O)cc1 (some centres not stated)", "0 (no)"),
    ("C=C1C=C(Br)C2(OCCCO2)[C@H]2OC12 (some centres not stated)", "0 (no)"),
    ("CN(C)CCCC[C@@H]1NC(=O)[C@@H]2C[C@H](C(=O)NCCCCCNC(=O)CS)[C@H](c3cccc(OCCO)c3)N2C1=O", "1 (yes)"),
    ("COc1ccc([Si](C)(C)[C@H]2[C@H](CC(=O)N(CCO)Cc3ccccc3)O[C@@]3(C(=O)N(Cc4ccc(N5CCOC5=O)cc4)c4ccccc43)[C@@H]2C)cc1", "0 (no)"),
    ("C=CC[C@]1(C(=O)N2CCCCC2)COC(c2ccc(OCCCO)cc2)=N1", "1 (yes)"),
    ("COCCOC(=O)N1C(=O)[C@@]2(c3cc(C#CCCO)ccc31)[C@H](c1ccccc1OCCO)N1[C@H](c3ccccc3)[C@H](c3ccccc3)OC(=O)[C@H]1[C@@H]2C(=O)NC[C@H](O)c1ccccc1", "1 (yes)"),
    ("C=CCN1C(=O)[C@@]2(O[C@@H](CCO)[C@H]([Si](C)(C)c3ccc(OC)cc3)[C@H]2C)c2cc(N(C=O)c3ccccc3)ccc21", "1 (yes)"),
]
